Biological target: P2X purinoceptor 7 (Homo sapiens)
Experiment: Antagonist activity at P2X7 receptor in human RPMI-8226 cells assessed as inhibition of ATP-induced Ca2+ influx by fura-2 staining based assay
Each entry below carries its reported IC50.

Study these solved cases before continuing.
substanceSmiles | testedOn | result
Cc1cc2ncn(CCCCN3CCN(C(c4ccccc4)c4ccccc4)CC3)c2cc1C | P2X purinoceptor 7 (Homo sapiens) | 770 nM
c1ccc(C(c2ccccc2)N2CCN(CCCCn3nnc4ccccc43)CC2)cc1 | P2X purinoceptor 7 (Homo sapiens) | 480 nM
COc1ccc2c(ccn2CCCCN2CCN(C(c3ccccc3)c3ccccc3)CC2)c1 | P2X purinoceptor 7 (Homo sapiens) | > 10000 nM
Fc1cccc2c1ccn2CCCCN1CCN(C(c2ccccc2)c2ccccc2)CC1 | P2X purinoceptor 7 (Homo sapiens) | 150 nM
O=c1[nH]c2ccccc2n1C/C=C/CN1CCN(C(c2ccccc2)c2ccccc2)CC1 | P2X purinoceptor 7 (Homo sapiens) | > 10000 nM

Supply measured IC50 of Cc1nnnn1CCCCN1CCN(C(c2ccccc2)c2ccccc2)CC1 in your reply.
4500 nM

Given Fc1ccc2ccn(CCCCN3CCN(C(c4ccccc4)c4ccccc4)CC3)c2c1 , respond with its IC50.
110 nM

Give the reported IC50 for this compound. c1ccc(C(c2ccccc2)N2CCN(CCCCn3cncn3)CC2)cc1
> 10000 nM

Using the record for c1ccc(C(c2ccccc2)N2CCN(CCCCn3ncc4ccccc43)CC2)cc1 , state its measured IC50.
190 nM

State its IC50 for this compound: N#Cc1ccc2c(ccn2CCCCN2CCN(C(c3ccccc3)c3ccccc3)CC2)c1
3800 nM

###

Target: P2X purinoceptor 7 (Homo sapiens) (UniProt Q99572)
Sequence (whole entry): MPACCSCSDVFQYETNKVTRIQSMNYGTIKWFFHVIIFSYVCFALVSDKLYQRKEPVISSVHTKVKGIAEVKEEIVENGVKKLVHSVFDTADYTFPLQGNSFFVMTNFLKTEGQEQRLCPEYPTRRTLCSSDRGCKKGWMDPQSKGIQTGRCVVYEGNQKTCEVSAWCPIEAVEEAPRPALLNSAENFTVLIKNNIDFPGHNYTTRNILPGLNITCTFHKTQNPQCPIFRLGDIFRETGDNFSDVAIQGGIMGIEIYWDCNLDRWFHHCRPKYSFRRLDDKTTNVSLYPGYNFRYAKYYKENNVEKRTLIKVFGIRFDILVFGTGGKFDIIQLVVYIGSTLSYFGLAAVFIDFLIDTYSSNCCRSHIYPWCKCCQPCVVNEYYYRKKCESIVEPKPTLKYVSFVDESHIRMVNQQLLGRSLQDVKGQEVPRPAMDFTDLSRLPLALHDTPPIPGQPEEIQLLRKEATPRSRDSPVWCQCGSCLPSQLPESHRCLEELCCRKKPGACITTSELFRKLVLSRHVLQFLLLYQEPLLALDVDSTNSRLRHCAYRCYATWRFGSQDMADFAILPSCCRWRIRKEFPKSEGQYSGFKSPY
Assay: Antagonist activity at P2X7 receptor in human RPMI-8226 cells assessed as inhibition of ATP-induced Ca2+ influx at 10 uM by fura-2 staining based assay relative to control
Format: cell-based
Conditions: filed as antagonist
Reported inhibition values for the following compounds.
Record the value in %, omitting the unit from your answer.

Past entries and their recorded results:
substanceSmiles | inhibition (%)
O=c1[nH]c2ccccc2n1CCCN1CCN(S(=O)(=O)c2ccc([N+](=O)[O-])cc2)CC1 | 72
Cc1ccc(S(=O)(=O)N2CCN(CCCn3c(=O)[nH]c4ccccc43)CC2)cc1 | 64
O=c1[nH]c2ccccc2n1C/C=C/CN1CCN(C(c2ccccc2)c2ccccc2)CC1 | 81

Provide only the value of recorded inhibition for O=c1[nH]c2ccccc2n1CCCN1CCN(S(=O)(=O)c2ccc(F)cc2)CC1
87

Give the reported inhibition for this compound. COc1ccc2c(ccn2CCCCN2CCN(C(c3ccccc3)c3ccccc3)CC2)c1
54

Check the records and state inhibition for c1ccc(C(c2ccccc2)N2CCN(CCCCn3cncn3)CC2)cc1
87
